# SYSTEM UNDER TEST: T1, integrin αVβ3 (UniProt P06756 31-992; P05106 27-718)
# T1 construct: Coated on the ELISA plate
# T1 sequence (P06756 31-992, chain 1 of 2): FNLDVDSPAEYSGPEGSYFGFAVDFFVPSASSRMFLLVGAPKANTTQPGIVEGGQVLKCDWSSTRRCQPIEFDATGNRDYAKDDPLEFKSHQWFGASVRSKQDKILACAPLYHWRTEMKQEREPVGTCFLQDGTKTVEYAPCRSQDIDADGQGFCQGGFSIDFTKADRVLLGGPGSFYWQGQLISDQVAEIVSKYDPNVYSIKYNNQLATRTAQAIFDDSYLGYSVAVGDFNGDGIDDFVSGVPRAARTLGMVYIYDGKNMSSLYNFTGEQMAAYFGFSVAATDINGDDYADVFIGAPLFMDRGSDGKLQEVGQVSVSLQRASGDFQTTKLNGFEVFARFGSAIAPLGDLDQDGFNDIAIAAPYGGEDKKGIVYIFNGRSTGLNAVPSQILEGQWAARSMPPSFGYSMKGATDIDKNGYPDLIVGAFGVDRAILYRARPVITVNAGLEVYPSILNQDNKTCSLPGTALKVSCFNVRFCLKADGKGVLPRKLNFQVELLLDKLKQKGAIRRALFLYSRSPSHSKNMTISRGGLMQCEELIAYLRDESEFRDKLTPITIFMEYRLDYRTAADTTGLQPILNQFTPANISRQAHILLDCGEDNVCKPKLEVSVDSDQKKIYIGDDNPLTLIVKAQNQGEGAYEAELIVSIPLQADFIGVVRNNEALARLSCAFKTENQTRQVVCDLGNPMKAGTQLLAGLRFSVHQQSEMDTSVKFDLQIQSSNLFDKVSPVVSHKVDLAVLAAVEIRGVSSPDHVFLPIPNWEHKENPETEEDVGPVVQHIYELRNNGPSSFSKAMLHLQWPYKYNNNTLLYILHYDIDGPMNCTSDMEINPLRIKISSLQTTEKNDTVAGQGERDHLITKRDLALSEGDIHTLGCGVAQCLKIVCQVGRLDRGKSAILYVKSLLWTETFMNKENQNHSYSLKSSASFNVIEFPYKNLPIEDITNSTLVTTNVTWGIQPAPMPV
# T1 sequence (P05106 27-718, chain 2 of 2): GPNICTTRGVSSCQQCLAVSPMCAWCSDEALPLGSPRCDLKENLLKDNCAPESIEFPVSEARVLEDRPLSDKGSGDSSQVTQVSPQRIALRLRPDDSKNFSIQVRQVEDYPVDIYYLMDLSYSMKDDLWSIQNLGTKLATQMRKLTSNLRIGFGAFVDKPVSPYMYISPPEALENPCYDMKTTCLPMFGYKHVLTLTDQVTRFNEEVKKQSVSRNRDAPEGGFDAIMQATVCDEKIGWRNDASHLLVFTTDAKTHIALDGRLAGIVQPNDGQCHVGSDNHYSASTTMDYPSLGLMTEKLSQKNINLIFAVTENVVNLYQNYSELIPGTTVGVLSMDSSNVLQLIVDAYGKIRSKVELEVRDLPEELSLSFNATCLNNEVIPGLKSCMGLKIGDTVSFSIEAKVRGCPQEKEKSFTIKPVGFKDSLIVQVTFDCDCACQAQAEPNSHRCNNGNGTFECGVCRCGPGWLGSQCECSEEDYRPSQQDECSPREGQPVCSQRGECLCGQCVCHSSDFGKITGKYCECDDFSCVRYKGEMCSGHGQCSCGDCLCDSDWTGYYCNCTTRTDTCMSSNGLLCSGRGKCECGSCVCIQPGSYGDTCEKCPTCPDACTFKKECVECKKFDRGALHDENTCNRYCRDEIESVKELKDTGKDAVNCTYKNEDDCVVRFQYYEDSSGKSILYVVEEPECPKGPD
# EXPERIMENT NOTES: ELISA, coated integrin, anti-MICA-HRP
EXPERIMENTAL READOUT: αvβ3 signal/ng (signal/ng MICA)
Numbers only, in signal/ng MICA.

Item soluble MICA generated from pKK130 (loop 1 extended 5.1sp, loop 3 extended 5.3sp) (designed binder, From pKK115 (from pKK46: His6, Glu125); secreted by 293T cells; also called 1-5.1sp/3-5.3sp) HHHHHHEPHSLRYNLTVLSWDGSVQSGFLTEVHLDGQPFLRCDRQKCRAKPQGQWAEDVLGNKTWDRETRDLTGNGKDLRMTLAHIKDQKEGLHSLQEIRVCEIHEDNSTRSSQHFYYDGELFLSQNLETEEWTMPQSSRAQTLAMNVRNFLKEDAMKTKTHYHAMHADCLQELRRYLKSGVVLRRTVPPMVNVTSGGSGGGSVTRGDTFTQSSGGSGGGVTCRASGFYPWNITLSWRQDGVSLSHDTQQWGDVLPDGNGTYQTWVATRISGGSGGGSHLARGDDLTYSGGSGGGCYMEHSGNHSTHPVPSGK has what recorded αvβ3 signal/ng?
19.6

Ref: patent US20150165065A1
